The measurements presented in this section are drawn from patent US20110166062A1.

- Target: glucagon receptor (UniProt P47871 26-477, limits assumed)
- Sequence (P47871 26-477 limits assumed): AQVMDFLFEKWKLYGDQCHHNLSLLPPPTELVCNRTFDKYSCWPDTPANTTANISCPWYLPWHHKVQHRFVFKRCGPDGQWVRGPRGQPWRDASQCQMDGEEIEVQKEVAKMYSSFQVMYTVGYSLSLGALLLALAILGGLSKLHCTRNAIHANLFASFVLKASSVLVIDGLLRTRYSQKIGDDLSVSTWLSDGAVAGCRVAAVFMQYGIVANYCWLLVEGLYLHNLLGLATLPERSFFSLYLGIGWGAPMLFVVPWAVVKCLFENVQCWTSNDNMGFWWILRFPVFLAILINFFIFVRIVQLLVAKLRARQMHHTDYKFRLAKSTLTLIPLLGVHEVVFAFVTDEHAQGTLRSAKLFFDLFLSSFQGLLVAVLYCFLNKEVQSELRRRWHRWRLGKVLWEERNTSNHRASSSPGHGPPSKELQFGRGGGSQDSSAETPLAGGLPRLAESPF
- Assay text: cell-based or functional assay
Where no end group is shown, it is not given here. [ ]: non-standard residue; d: D form. The star is where a group is joined. C18 fatty acyl = 18 carbon fatty acyl group covalently attached to Lys; PEG 40 kDa = PEG (40 kDa) covalently attached to Cys; Palmitoyl = CCCCCCCCCCCCCCCC(=O)*; Myristoyl = CCCCCCCCCCCCCC(=O)*; Aib = CC(C)(N)C(=O)O
Response field label takes rule met when relative activity is strictly below 4% and rule not met in all other cases.

relative activity under 4%? Item: YXQGTFTSDYSIYLDXQAAXEFVNWLLAGGPSSGAPPPSC (Orn at position 16; AIB at position 20) [mt-275] rule not met

Input Y[Aib]EGTFTSDYSIYLDKQAA[Aib]EFVNWLLAGGPSSGAPPPSC(PEG 40 kDa)-NH2 [mt-274] ; condition: relative activity strictly below 4%. Does it hold? rule met

hey, is relative activity for Y[Aib]EGTFTSDYSIYLDKQAA[Aib]EFVC(PEG 40 kDa)WLLAGGPSSGAPPPSK(C18 fatty acyl)-NH2 [mt-310] lower than 4% or not? rule not met

State whether 4% exceeds relative activity recorded for Y[Aib]EGTFTSDYSIYLDKQAA[Aib]EFVC(PEG 40 kDa)WLLAGGPSSGAPPPSK(Palmitoyl)-NH2 [mt-298] . rule met

Below 4% on relative activity? Entry Y[Aib]EGTFTSDYSIYLDKQAA[Aib]EFVC(PEG 40 kDa)WLLAGGPSSGAPPPSK(Myristoyl)-NH2 [mt-309] rule met

Answer whether the binder Y[Aib]EGTFTSDYSIYLDKQAA[Aib]EFVC(PEG 40 kDa)WLLAGGPSSGAPPPSK-NH2 (also: PEG linkage structure not given here) [mt-331] has relative activity strictly less than 4% rule met

In plain terms, does Y[Aib]EGTFTSDYSIYLDKQAA[Aib]EFVC(PEG 40 kDa)WLLAGGPSSGAPPPSK-NH2 (not fully specified) [mt-311] come in under 4% for relative activity? rule met
